Test system: NRG-mice bearing LNCaP tumors
Experiment: Biodistribution (and PET/SPECT imaging) in NRG-mice bearing LNCaP tumors
Type: in vivo
Settings: 72 h p.i., Avg
*1 amine or outer side, *2 acyl side, *3 side chain or, on linkers, in order; H or OH if unused. Where a SMILES comes first, the peptide text is derived from it. [ ]: non-standard residue; d: D form. The star is where a group is joined. ξ: configuration not given here. ξLys(Nα-CO-ξAad) = O=C(O)CCCC(NC(=O)NC(CCCCN*)C(=O)O)C(=O)O; Butanoyl(4-(4-NO2Ph)) = O=C(CCCc1ccc([N+](=O)[O-])cc1)*; DOTA = O=C(O)CN1CCN(CC(=O)O)CCN(CC(=O)*)CCN(CC(=O)O)CC1; Butanoyl(4-(4-MeO-phenyl)) = COc1ccc(CCCC(=O)*)cc1; ξAla(9-anthryl) = NC(Cc1c2ccccc2cc2ccccc12)C(=O)O; X2 = O=C(NC(CCCCN*)C(=O)O)NC(CC(F)C(=O)O)C(=O)O; X1 = O=C(C1CCC(CN[*:1])CC1)[*:2]; ξK = NCCCCC(N)C(=O)O
In this section, each of the molecules is paired with its reported Biodistribution: Seminal gland.
quantity: Biodistribution: Seminal gland

[
  {
    "molecule": "COc1ccc(CCCC(=O)NCC(=O)NC(CCCCNC(=O)CN2CCN(CC(=O)[O-])CCN(CC(=O)[O-])CCN(CC(=O)[O-])CC2)C(=O)NCC(=O)NCC2CCC(C(=O)NC(Cc3c4ccccc4cc4ccccc34)C(=O)NCCCCC(NC(=O)NC(CC(F)C(=O)O)C(=O)O)C(=O)O)CC2)cc1.[177Lu+3] (stereo not shown) [^177Lu-CCZ02008] ({Butanoyl(4-(4-MeO-phenyl))}-G[ξK](DOTA)G[X1][ξAla(9-anthryl)]-X2)",
    "tested.system": "NRG-mice bearing LNCaP tumors",
    "reported.measurement": "0.15 % ID/g"
  },
  {
    "molecule": "O=C([O-])CN1CCN(CC(=O)[O-])CCN(CC(=O)NCCCCC(NC(=O)CNC(=O)CCCc2ccc([N+](=O)[O-])cc2)C(=O)NCC(=O)NCC2CCC(C(=O)NC(Cc3c4ccccc4cc4ccccc34)C(=O)NCCCCC(NC(=O)NC(CCCC(=O)O)C(=O)O)C(=O)O)CC2)CCN(CC(=O)[O-])CC1.[177Lu+3] (stereo not shown) [^177Lu-CCZ02017] ({Butanoyl(4-(4-NO2Ph))}-G[ξK](DOTA)G[X1][ξAla(9-anthryl)]-{ξLys(Nα-CO-ξAad)})",
    "tested.system": "NRG-mice bearing LNCaP tumors",
    "reported.measurement": "0.03 % ID/g"
  },
  {
    "molecule": "O=C([O-])CN1CCN(CC(=O)[O-])CCN(CC(=O)NCCCCC(NC(=O)CNC(=O)CCCc2ccc([N+](=O)[O-])cc2)C(=O)NCC(=O)NCC2CCC(C(=O)NC(Cc3c4ccccc4cc4ccccc34)C(=O)NCCCCC(NC(=O)NC(CCCC(=O)O)C(=O)O)C(=O)O)CC2)CCN(CC(=O)[O-])CC1.[225Ac+3] (stereo not shown) [^225Ac-CCZ02017] ({Butanoyl(4-(4-NO2Ph))}-G[ξK](DOTA)G[X1][ξAla(9-anthryl)]-{ξLys(Nα-CO-ξAad)})",
    "tested.system": "NRG-mice bearing LNCaP tumors",
    "reported.measurement": "0.03 % ID/g"
  },
  {
    "molecule": "COc1ccc(CCCC(=O)NCC(=O)NC(CCCCNC(=O)CN2CCN(CC(=O)[O-])CCN(CC(=O)[O-])CCN(CC(=O)[O-])CC2)CC(=O)NCC2CCC(C(=O)NC(Cc3c4ccccc4cc4ccccc34)C(=O)NCCCCC(NC(=O)NC(CC(F)C(=O)O)C(=O)O)C(=O)O)CC2)cc1.[177Lu+3] (stereo not shown) [^177Lu-CCZ02019]",
    "tested.system": "NRG-mice bearing LNCaP tumors",
    "reported.measurement": "0.06 % ID/g"
  }
]

====

System: NRG-mice bearing LNCaP tumors
Assay: Biodistribution (and PET/SPECT imaging) in NRG-mice bearing LNCaP tumors
Assay type: in vivo
Settings: 24 h p.i., Avg
quantity: Biodistribution: Intestine (% ID/g)

[
  {
    "molecule": "COc1ccc(CCCC(=O)NCC(=O)NC(CCCCNC(=O)CN2CCN(CC(=O)[O-])CCN(CC(=O)[O-])CCN(CC(=O)[O-])CC2)C(=O)NCC2CCC(C(=O)NC(Cc3c4ccccc4cc4ccccc34)C(=O)NCCCCC(NC(=O)NC(CCCC(=O)O)C(=O)O)C(=O)O)CC2)cc1.[177Lu+3] (stereo not shown) [^177Lu-HTK03170, reference compound]",
    "unit.spec": "% ID/g",
    "reported.measurement": 0.18
  }
]

====

Test system: NRG-mice bearing LNCaP tumors
Test: Biodistribution (and PET/SPECT imaging) in NRG-mice bearing LNCaP tumors
Assay type: in vivo
Details: 72 h p.i., Avg
*1 amine or outer side, *2 acyl side, *3 side chain or, on linkers, in order; H or OH if unused. Where a SMILES comes first, the peptide text is derived from it. [ ]: non-standard residue; d: D form. The star is where a group is joined. ξ: configuration not given here. ξLys(Nα-CO-ξAad) = O=C(O)CCCC(NC(=O)NC(CCCCN*)C(=O)O)C(=O)O; Butanoyl(4-(4-NO2Ph)) = O=C(CCCc1ccc([N+](=O)[O-])cc1)*; DOTA = O=C(O)CN1CCN(CC(=O)O)CCN(CC(=O)*)CCN(CC(=O)O)CC1; Butanoyl(4-(4-MeO-phenyl)) = COc1ccc(CCCC(=O)*)cc1; ξAla(9-anthryl) = NC(Cc1c2ccccc2cc2ccccc12)C(=O)O; X2 = O=C(NC(CCCCN*)C(=O)O)NC(CC(F)C(=O)O)C(=O)O; X1 = O=C(C1CCC(CN[*:1])CC1)[*:2]; ξK = NCCCCC(N)C(=O)O
Recorded measurements of Biodistribution: Brain, one per entry
quantity: Biodistribution: Brain

[
  {
    "molecule": "COc1ccc(CCCC(=O)NCC(=O)NC(CCCCNC(=O)CN2CCN(CC(=O)[O-])CCN(CC(=O)[O-])CCN(CC(=O)[O-])CC2)CC(=O)NCC2CCC(C(=O)NC(Cc3c4ccccc4cc4ccccc34)C(=O)NCCCCC(NC(=O)NC(CC(F)C(=O)O)C(=O)O)C(=O)O)CC2)cc1.[177Lu+3] (stereo not shown) [^177Lu-CCZ02019]",
    "tested.system": "NRG-mice bearing LNCaP tumors",
    "reported.measurement": "0.01 % ID/g"
  },
  {
    "molecule": "O=C([O-])CN1CCN(CC(=O)[O-])CCN(CC(=O)NCCCCC(NC(=O)CNC(=O)CCCc2ccc([N+](=O)[O-])cc2)C(=O)NCC(=O)NCC2CCC(C(=O)NC(Cc3c4ccccc4cc4ccccc34)C(=O)NCCCCC(NC(=O)NC(CCCC(=O)O)C(=O)O)C(=O)O)CC2)CCN(CC(=O)[O-])CC1.[177Lu+3] (stereo not shown) [^177Lu-CCZ02017] ({Butanoyl(4-(4-NO2Ph))}-G[ξK](DOTA)G[X1][ξAla(9-anthryl)]-{ξLys(Nα-CO-ξAad)})",
    "tested.system": "NRG-mice bearing LNCaP tumors",
    "reported.measurement": "0.01 % ID/g"
  },
  {
    "molecule": "COc1ccc(CCCC(=O)NCC(=O)NC(CCCCNC(=O)CN2CCN(CC(=O)[O-])CCN(CC(=O)[O-])CCN(CC(=O)[O-])CC2)C(=O)NCC(=O)NCC2CCC(C(=O)NC(Cc3c4ccccc4cc4ccccc34)C(=O)NCCCCC(NC(=O)NC(CC(F)C(=O)O)C(=O)O)C(=O)O)CC2)cc1.[177Lu+3] (stereo not shown) [^177Lu-CCZ02008] ({Butanoyl(4-(4-MeO-phenyl))}-G[ξK](DOTA)G[X1][ξAla(9-anthryl)]-X2)",
    "tested.system": "NRG-mice bearing LNCaP tumors",
    "reported.measurement": "0.03 % ID/g"
  },
  {
    "molecule": "O=C([O-])CN1CCN(CC(=O)[O-])CCN(CC(=O)NCCCCC(NC(=O)CNC(=O)CCCc2ccc([N+](=O)[O-])cc2)C(=O)NCC(=O)NCC2CCC(C(=O)NC(Cc3c4ccccc4cc4ccccc34)C(=O)NCCCCC(NC(=O)NC(CCCC(=O)O)C(=O)O)C(=O)O)CC2)CCN(CC(=O)[O-])CC1.[225Ac+3] (stereo not shown) [^225Ac-CCZ02017] ({Butanoyl(4-(4-NO2Ph))}-G[ξK](DOTA)G[X1][ξAla(9-anthryl)]-{ξLys(Nα-CO-ξAad)})",
    "tested.system": "NRG-mice bearing LNCaP tumors",
    "reported.measurement": "0.02 % ID/g"
  }
]
